# Test system: HepG2
# assay.details: cytotoxicity call (relative viability < 0.9)
# assay.context: 10 µM
Hit rate of the full screen: of about 39,000 compounds, about 3,300 (8.5%) were called active. For the sample, actives were picked, then their nearest neighbours and some compounds at random.
Result category, one only: active, inactive

Solved entries (count: 10):
• CC(C)NC(=O)Nc1cccc2c1O[C@H](CN(C)S(=O)(=O)c1ccc(Cl)cc1)[C@H](C)CN([C@@H](C)CO)C2=O = inactive
• C[C@@H]1CCCCO[C@H](CN(C)Cc2ccc(Cl)c(Cl)c2)[C@H](C)CN([C@@H](C)CO)C(=O)c2cc(NC(=O)c3ccccc3)ccc2O1 = inactive
• C[C@H](CO)N1C[C@H](C)[C@H](CN(C)Cc2ccc(Cl)c(Cl)c2)OCCCC[C@H](C)Oc2ccc(NC(=O)c3ccccc3)cc2C1=O = inactive
• C[C@@H]1CCCCO[C@H](CN(C)C(=O)Nc2ccc(F)cc2)[C@H](C)CN([C@H](C)CO)C(=O)c2cc(NC(=O)Nc3ccc(C(F)(F)F)cc3)ccc2O1 = inactive
• C[C@@H]1CCCCO[C@H](CN(C)Cc2ccc(C(F)(F)F)cc2)[C@@H](C)CN([C@@H](C)CO)C(=O)c2cc(NS(=O)(=O)c3ccc(Cl)cc3)ccc2O1 = active
• C[C@H](CO)N1C[C@H](C)[C@@H](CN(C)Cc2ccc(Cl)c(Cl)c2)OCCCC[C@H](C)Oc2ccc(NC(=O)c3ccccc3)cc2C1=O = inactive
• C[C@@H]1CN([C@H](C)CO)C(=O)c2cc(NC(=O)c3ccccc3)ccc2O[C@@H](C)CCCCO[C@H]1CN(C)Cc1ccc(Cl)c(Cl)c1 = active
• CN1C(=O)c2cc(NC(=O)C3CCOCC3)ccc2OC[C@@H]2O[C@@H](CC(=O)NCCc3ccncc3)CC[C@@H]21 = inactive
• Cc1noc(C)c1S(=O)(=O)N(C)C[C@H]1OCCCC[C@@H](C)Oc2ccc(NS(C)(=O)=O)cc2C(=O)N([C@H](C)CO)C[C@@H]1C = inactive
• C[C@@H]1CCCCO[C@@H](CN(C)Cc2ccc(Cl)c(Cl)c2)[C@H](C)CN([C@@H](C)CO)C(=O)c2cc(NC(=O)c3ccccc3)ccc2O1 = active

Lookup: What was the test verdict on `C[C@H]1CCCCO[C@H](CN(C)Cc2ccc(Cl)c(Cl)c2)[C@@H](C)CN([C@@H](C)CO)C(=O)c2cc(NC(=O)c3ccccc3)ccc2O1` ?
Found: inactive

Lookup: What was the test verdict on `C[C@H](CO)N1C[C@H](C)[C@@H](CN(C)Cc2ccc(C(F)(F)F)cc2)OCCCC[C@H](C)Oc2ccc(NS(=O)(=O)c3ccc(Cl)cc3)cc2C1=O` ?
Found: inactive

Lookup: What was the test verdict on `C[C@@H]1CN([C@H](C)CO)C(=O)c2cc(NS(=O)(=O)c3ccc(Cl)cc3)ccc2O[C@@H](C)CCCCO[C@H]1CN(C)Cc1ccc(C(F)(F)F)cc1` ?
Found: active

* * *

# Test system: HepG2
# assay.details: cytotoxicity call (relative viability < 0.9)
# assay.context: 10 µM
The campaign covered roughly 39,000 compounds. About 3,300 (8.5%) were called active. The list comes from a sample in which actives are over-represented; it also holds close analogues and randomly drawn compounds.
reported.metric: cytotoxicity call

* C[C@@H]1CCCCO[C@H](CN(C)S(=O)(=O)c2ccc(Cl)cc2)[C@@H](C)CN([C@H](C)CO)C(=O)c2cc(NS(=O)(=O)c3ccc(Cl)cc3)ccc2O1 | inactive
* C[C@@H]1CCCCO[C@@H](CN(C)S(=O)(=O)c2ccc(Cl)cc2)[C@@H](C)CN([C@@H](C)CO)C(=O)c2cc(NS(=O)(=O)c3ccc(Cl)cc3)ccc2O1 | inactive
